target: PRKG1 (human); assay: KINOMEscan competition binding; conditions: compound 10.0 µM
For each record, write down the corresponding kinase still bound, per cent of control.
Quick note: unit goes after the number.

Completed entries (count: 3):
Cc1ccc(C(=O)Nc2cccc(C(F)(F)F)c2)cc1Nc1cncc(C(N)=O)c1 = 100%
C[C@@H](Oc1cc(-n2cnc3ccc(CN4CCN(C)CC4)cc32)sc1C(N)=O)c1ccccc1C(F)(F)F = 100%
COc1cc(N2CCN(C)CC2)ccc1Nc1nc(N)c(C(=O)c2c(Cl)cccc2Cl)s1 = 100%

Could you tell me kinase still bound, per cent of control for each of these compounds? They are listed below.
1. CCC(=O)N1CCN(c2ccc(-n3c(=O)ccc4cnc5ccc(-c6cnc7ccccc7c6)cc5c43)cc2C(F)(F)F)CC1
2. Cc1ccc2nc(NCCN)c3ncc(C)n3c2c1

86%
100%

---

molecular target: PIK3CB (human) (UniProt P42338); experiment: KINOMEscan competition binding; conditions: compound 10.0 µM
Sequence (P42338 whole entry, looked up): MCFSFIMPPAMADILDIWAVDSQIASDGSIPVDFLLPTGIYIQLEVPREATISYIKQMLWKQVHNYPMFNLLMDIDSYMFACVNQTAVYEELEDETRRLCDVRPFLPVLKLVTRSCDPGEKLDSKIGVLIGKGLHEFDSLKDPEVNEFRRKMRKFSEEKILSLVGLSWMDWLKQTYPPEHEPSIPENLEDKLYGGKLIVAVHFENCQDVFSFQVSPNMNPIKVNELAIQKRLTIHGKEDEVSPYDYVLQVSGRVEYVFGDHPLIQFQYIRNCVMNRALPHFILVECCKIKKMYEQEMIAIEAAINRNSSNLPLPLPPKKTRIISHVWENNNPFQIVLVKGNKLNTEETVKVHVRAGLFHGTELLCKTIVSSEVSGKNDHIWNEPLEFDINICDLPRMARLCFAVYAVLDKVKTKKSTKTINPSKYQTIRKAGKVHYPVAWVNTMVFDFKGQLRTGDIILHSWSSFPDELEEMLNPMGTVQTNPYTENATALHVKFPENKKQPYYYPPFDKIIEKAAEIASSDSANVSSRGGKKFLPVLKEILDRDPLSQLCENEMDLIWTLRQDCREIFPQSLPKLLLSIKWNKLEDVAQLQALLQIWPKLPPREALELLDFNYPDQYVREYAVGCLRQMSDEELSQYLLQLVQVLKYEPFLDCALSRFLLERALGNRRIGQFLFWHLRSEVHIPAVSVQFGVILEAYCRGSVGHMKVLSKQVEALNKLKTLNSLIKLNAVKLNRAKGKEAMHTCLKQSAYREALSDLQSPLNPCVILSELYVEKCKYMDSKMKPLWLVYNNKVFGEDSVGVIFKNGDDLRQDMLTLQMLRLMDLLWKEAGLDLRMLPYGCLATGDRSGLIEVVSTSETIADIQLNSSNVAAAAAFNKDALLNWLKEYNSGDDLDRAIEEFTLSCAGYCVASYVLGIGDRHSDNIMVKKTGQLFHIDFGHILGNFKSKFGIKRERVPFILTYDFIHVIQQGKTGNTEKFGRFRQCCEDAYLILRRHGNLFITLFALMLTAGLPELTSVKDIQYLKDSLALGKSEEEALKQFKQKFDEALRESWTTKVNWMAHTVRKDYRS
Please provide measured kinase still bound, per cent of control for the entries that follow.
Remember to follow the number with its unit.

COc1cc(C(=O)NC2CCN(C)CC2)ccc1Nc1ncc2c(n1)N(C1CCCC1)CCC(=O)N2C(C)C = 100%
CN(C)C/C=C/C(=O)Nc1cccc(Nc2ncc3c(n2)N(C)c2ccccc2C(=O)N3C)c1 = 32%
CCN1CCN(Cc2ccc(Nc3ncc4c(n3)N(C)c3ccccc3C(=O)N4C)cc2C(F)(F)F)CC1 = 68%

Lab note: each compound below needs its kinase still bound, per cent of control filled in.
1. CC[C@@H]1C(=O)N(C)c2cnc(Nc3ccc(C(=O)NC4CCN(C)CC4)cc3OC)nc2N1C1CCCC1
2. CCC(=O)N1CCN(c2ccc(-n3c(=O)ccc4cnc5ccc(-c6cnc7ccccc7c6)cc5c43)cc2C(F)(F)F)CC1

100%
65%

---

Kindly supply the reported kinase still bound, per cent of control values for the records listed here.
target: PIM1 (human) (UniProt P11309); test: KINOMEscan competition binding; conditions: compound 10.0 µM
Sequence (P11309 whole entry, looked up): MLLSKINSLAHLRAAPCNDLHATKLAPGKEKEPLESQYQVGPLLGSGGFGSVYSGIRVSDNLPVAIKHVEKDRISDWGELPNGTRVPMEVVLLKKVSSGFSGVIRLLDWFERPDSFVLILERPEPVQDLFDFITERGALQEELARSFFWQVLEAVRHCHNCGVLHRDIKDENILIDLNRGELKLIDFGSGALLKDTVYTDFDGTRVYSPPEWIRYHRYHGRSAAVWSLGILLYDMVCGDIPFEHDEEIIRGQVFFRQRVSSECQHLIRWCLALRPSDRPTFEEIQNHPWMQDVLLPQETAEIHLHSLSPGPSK
Mention the unit after the number when you answer.

Example results:
CCCS(=O)(=O)Nc1ccc(F)c(C(=O)c2c[nH]c3ncc(-c4ccc(Cl)cc4)cc23)c1F = 95%
OCCCNc1cc(-c2ccnc(Nc3cccc(Cl)c3)n2)ccn1 = 100%
Nc1ccc(-c2ccc3ncc4ccc(=O)n(-c5cccc(C(F)(F)F)c5)c4c3c2)cn1 = 92%
CC[C@@H]1C(=O)N(C)c2cnc(Nc3ccc(C(=O)NC4CCN(C)CC4)cc3OC)nc2N1C1CCCC1 = 100%
Cc1ccc2nc(NCCN)c3ncc(C)n3c2c1 = 100%
Cc1ccc(NC(=O)c2cccc(C(C)(C)C#N)c2)cc1Nc1ccc2ncn(C)c(=O)c2c1 = 100%
O=C1Nc2ccc(I)cc2/C1=C/c1cc(Br)c(O)c(Br)c1 = 2.8%
COc1cc(C(=O)NC2CCN(C)CC2)ccc1Nc1ncc2c(n1)N(C1CCCC1)CCC(=O)N2C(C)C = 100%

Please examine the following record next.
Requested field: kinase still bound, per cent of control. Item: COc1cc(C(=O)NC2CCN(C)CC2)ccc1Nc1ncc2c(n1)N(C1CCCC1)C(C)CC(=O)N2C (centres undefined) 100%

---

Could you please report measured kinase still bound, per cent of control for the items listed next?
target: CAMK1G (human); assay: KINOMEscan competition binding; conditions: compound 10.0 µM
One number for each entry, in %.

Cc1ccc(NC(=O)c2cccc(C(C)(C)C#N)c2)cc1Nc1ccc2ncn(C)c(=O)c2c1 = 100
Cc1ccc2nc(NCCN)c3ncc(C)n3c2c1 = 88
Cc1ccc(C(=O)Nc2cccc(C(F)(F)F)c2)cc1Nc1cncc(C(N)=O)c1 = 100

Quick batch: kinase still bound, per cent of control for everything below.
1. CC[C@@H]1C(=O)N(C)c2cnc(Nc3ccc(C(=O)NC4CCN(C)CC4)cc3OC)nc2N1C1CCCC1
2. CCC(=O)N1CCN(c2ccc(-n3c(=O)ccc4cnc5ccc(-c6cnc7ccccc7c6)cc5c43)cc2C(F)(F)F)CC1
3. CN(C)C/C=C/C(=O)Nc1cccc(Nc2ncc3c(n2)N(C)c2ccccc2C(=O)N3C)c1

1: 100; 2: 74; 3: 52
